The reported measurements were obtained from patent US20160207996A1.

target: human Nav1.7 (full length) (human) (UniProt Q15858); assay: cell-based or functional assay
measured.metric: % inhibition of inward current following P02 voltage protocol, 25 µg/ml (%)

>>> numeric_readout("9A1 (antibody, V domains shown, chimeric llama-human, human IgG1 constant domains) VH: EVQLVQPGAELRNPGASVKVSCKASGDTFTDYYIHWVRQAPGQGLEWMGRIDPEDGGTKYTQKFQGRVTFTADTSTSTVYLELDSLRSEDTAVYYCVGDMDYWGKGTLVTVSS VL: QTVVTQEPSLSVSPGGTVTLTCGLSSGSVTFGNYPSWYQQTPGQAPRTLIYTTNSRHSGVPSRFSGSISGNKATLTISGAQPEDEADFYCALSRVSGTYGTVFGGGTHLTVL")
24.3
>>> numeric_readout("9H4 (antibody, human IgG1, V domains shown) VH: EVQLVQPGAELRNPGASVKVSCKASGYIFTSAYIDWVRQAPGQGLEWMGRIDPEDGETRYAHQFRDRVTFTADTSTSTVYAELNSLRSEDTAVYYCAITIEGFWGQGTQVTVSS VL: ATMLTQSPGSLSVVPGESASISCKTSRSLVHSDGKTYLSWLLQKPGQSPQRLIYQVSNRGSGVPDRFTGSGSGTDFTLKISGVKAEDAGVYYCAQATYYPLSFGSGTRVEIK")
19.8
>>> numeric_readout("9C3 (antibody, V domains shown, chimeric llama-human, human IgG1 constant domains) VH: EVQLVQPGAELRNPGTSVKVSCKTSGYYFTSSDIQWVRQAPAQGLEWMGRIDPEDGATKYAPKFQGRVTFTADTFTRTAYVELSNLRSDDTAVYYCMTAGGEYWGKGTLVTVSS VL: QPVLNQPSALSVSLGQTARITCQGGDFRNYYNNWYQQKPGQAPVLVIYEDSERPSGIPERFSGSSSGDTVILTVSRVQADDEADYYCQSSDSTDNAVFGGGTHLTVL")
21.6
